- TEST_PROTOCOL: Inhibition of Sprague-Dawley rat imidazoline I2 receptor
// assign class 1 if Ki falls strictly below 20 µM, else class 0 (ties count as class 0)

Br.NCC[C@@H]1CNC(Nc2ccc(Cl)cc2Cl)=N1; class 0
Br.NCC[C@H]1CNC(Cc2cccc3ccccc23)=N1; class 1
Br.NCC[C@H]1CNC(/C=C/c2ccccc2)=N1; class 1
Br.NCC[C@H]1CNC(Nc2c(F)cccc2F)=N1; class 0
Br.Cc1cccc(NC2=N[C@@H](CCN)CN2)n1; class 1

Problem: Does the reported Ki of the following molecule sit strictly below 20 µM? Br.Cc1cccc(NC2=N[C@H](CCN)CN2)n1
Solution: class 0

Problem: Does the reported Ki of the following molecule sit strictly below 20 µM? Br.NCC[C@H]1CNC(CN(Cc2ccccc2)c2ccccc2)=N1
Solution: class 1

====

- TEST_PROTOCOL: Inhibition of Sprague-Dawley rat imidazoline I2 receptor
Listing: pKi of selected compounds
Scale: negative log10 of molar concentration, which is what pKi denotes.

Take a look at these entries with their results.
Br.NCC[C@@H]1CNC(Cc2cccc3ccccc23)=N1; 4.33
Br.NCC[C@H]1CNC(Nc2ccc(Cl)cc2Cl)=N1; 5.75
Clc1cccc(Cl)c1NC1=NCCN1 [CLONIDINE]; 6.44
Br.CCC1(C2=N[C@H](CCN)CN2)Cc2ccccc2O1 (some centres not stated); 4.72
Br.NCC[C@H]1CNC(C2COc3ccccc3O2)=N1 (some centres not stated); 5.09
Br.NCC[C@@H]1CNC(Nc2cccc(C(F)(F)F)c2)=N1; 4.32

Consider Br.NCC[C@H]1CNC(Nc2ccc(Br)cc2)=N1 . Its measured pKi is 4.09

====

Listing: pKi of selected molecules
- TEST_PROTOCOL: Inhibition of Sprague-Dawley rat imidazoline I2 receptor
Scale: negative log10 of molar concentration, which is what pKi denotes.

Take a look at these entries with their results.
Br.NCC[C@@H]1CNC(Nc2c(Cl)cccc2Cl)=N1; 5.02
Br.NCC[C@H]1CNC(c2ccccc2F)=N1; 4.56
Cl.Cl.NCC[C@H]1CNC(NC(C2CC2)C2CC2)=N1; 4.55

Here's the next entry for you.
Consider Br.NCC[C@H]1CNC(Cc2ccccc2)=N1 . Its measured pKi is 4.23

====

- SYSTEM: Nischarin (Rattus norvegicus, UniProt Q4G017)
- Sequence (Q4G017 whole entry): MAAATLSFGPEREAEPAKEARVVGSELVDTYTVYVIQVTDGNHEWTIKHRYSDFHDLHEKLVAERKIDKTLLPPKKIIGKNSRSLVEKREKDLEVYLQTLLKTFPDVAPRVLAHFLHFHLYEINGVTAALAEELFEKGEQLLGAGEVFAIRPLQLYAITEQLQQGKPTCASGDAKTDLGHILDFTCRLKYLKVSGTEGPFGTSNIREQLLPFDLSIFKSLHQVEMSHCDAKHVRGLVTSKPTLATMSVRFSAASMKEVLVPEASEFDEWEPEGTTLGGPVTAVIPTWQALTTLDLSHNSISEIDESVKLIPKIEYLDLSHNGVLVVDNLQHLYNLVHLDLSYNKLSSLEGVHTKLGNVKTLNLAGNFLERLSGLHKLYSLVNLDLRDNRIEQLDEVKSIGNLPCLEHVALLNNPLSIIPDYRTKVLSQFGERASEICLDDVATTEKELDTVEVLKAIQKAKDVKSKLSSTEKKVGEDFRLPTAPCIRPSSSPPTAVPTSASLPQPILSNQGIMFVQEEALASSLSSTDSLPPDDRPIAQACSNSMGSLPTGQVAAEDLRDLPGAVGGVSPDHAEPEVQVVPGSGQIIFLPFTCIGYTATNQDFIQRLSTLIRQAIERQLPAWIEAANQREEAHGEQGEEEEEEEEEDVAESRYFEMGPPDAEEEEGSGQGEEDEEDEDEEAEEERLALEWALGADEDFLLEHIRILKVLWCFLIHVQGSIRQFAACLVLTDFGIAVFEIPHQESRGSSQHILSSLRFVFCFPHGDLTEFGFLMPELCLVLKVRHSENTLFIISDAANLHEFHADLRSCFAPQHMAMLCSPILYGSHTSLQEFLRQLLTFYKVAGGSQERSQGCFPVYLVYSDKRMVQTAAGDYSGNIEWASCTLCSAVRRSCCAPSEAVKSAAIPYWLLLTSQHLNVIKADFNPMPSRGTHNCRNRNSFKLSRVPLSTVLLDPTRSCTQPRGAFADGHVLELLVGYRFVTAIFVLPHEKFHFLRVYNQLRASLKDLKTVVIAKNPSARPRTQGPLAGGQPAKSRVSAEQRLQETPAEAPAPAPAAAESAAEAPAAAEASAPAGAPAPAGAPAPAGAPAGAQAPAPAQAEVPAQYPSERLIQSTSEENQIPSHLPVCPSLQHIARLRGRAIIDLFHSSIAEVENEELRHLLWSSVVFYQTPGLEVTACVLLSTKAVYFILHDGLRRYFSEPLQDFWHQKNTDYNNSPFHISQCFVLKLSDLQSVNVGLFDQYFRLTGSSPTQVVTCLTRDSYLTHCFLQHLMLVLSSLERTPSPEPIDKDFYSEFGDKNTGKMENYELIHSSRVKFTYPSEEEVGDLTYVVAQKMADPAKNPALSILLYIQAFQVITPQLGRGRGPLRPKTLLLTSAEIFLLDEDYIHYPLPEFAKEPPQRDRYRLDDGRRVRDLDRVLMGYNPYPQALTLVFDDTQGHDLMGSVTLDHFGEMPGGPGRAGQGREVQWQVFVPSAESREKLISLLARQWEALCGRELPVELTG
pIC50: −log10 of the molar value.
Classification by pIC50 follows these ranges: low = under 4, middle = from 4 up to 5, high = 5 and over

Some solved entries appear below for comparison.
Br.NCC[C@H]1CNC(Nc2ccc(Cl)cc2Cl)=N1; high
Br.NCC[C@H]1CNC(Nc2ccc(Br)cc2)=N1; middle
Br.NCC[C@@H]1CNC(Cc2cccc3ccccc23)=N1; low
Br.NCC[C@H]1CNC(/C=C/c2ccccc2)=N1; middle
Br.NCC[C@H]1CNC(Nc2cccc(C(F)(F)F)c2)=N1; high
Br.NCC[C@H]1CNC(Cc2ccccc2)=N1; low
Br.NCC[C@@H]1CNC(Nc2c(Cl)cccc2Cl)=N1; high
Br.NCC[C@@H]1CNC(Nc2ccc(Cl)cc2Cl)=N1; high

Problem: Bin this entry: Br.NCC[C@H]1CNC(Nc2cccc(Cl)c2)=N1
Solution: middle

Problem: Bin this entry: Cl.Cl.NCC[C@H]1CNC(NC(C2CC2)C2CC2)=N1
Solution: low

Problem: Bin this entry: Br.NCC[C@@H]1CNC(Nc2cccc(C(F)(F)F)c2)=N1
Solution: high
